method summary: PAMPA BBB permeability
Type: in vitro ADME
assay conditions: PAMPA, pH 7.4, 50 μM, U.V, read-out: Pe (PAMPA BBB permeability)
measured metric: Papp at 4 h, 50 μM (nm/s)
Answers are plain numbers, in nm/s.

[ask] I have this molecule here, CC(=O)[C@H]1CC[C@H]2[C@@H]3CCC4=CC(=O)CC[C@]4(C)[C@H]3CC[C@]12C [Progesterone] , and I need its recorded Papp at 4 h, 50 μM.
[reply] 422

Now look at this one.
[ask] I have this molecule here, CNc1ccc(NCCc2ccccc2OC)cc1.Cl [KDS12025] , and I need its recorded Papp at 4 h, 50 μM.
[reply] 674
